- METHOD_NOTES: solvent given as SMILES
- MEASUREMENT_CONDITIONS: in CCOC(C)=O
EXPERIMENTAL_ENDPOINT: emission maximum (nm)
Value expressed in nm; do not type the unit.

See these solved cases before continuing.
COMPOUND_STRING	OUTPUT_UNIT	TEST_VALUE
N#CSC1=CC2=C(c3ccccc3)c3cc(SC#N)c(N4CCOCC4)n3[B-](F)(F)[N+]2=C1N1CCOCC1	nm	628
CC1=CC(C)=[N+]2C1=C(c1ccc(N3CCOCC3)cc1)c1c(C)cc(C)n1[B-]2(F)F	nm	517
CCn1c2ccsc2c2c3nsnc3c3c4sccc4n(CC)c3c21	nm	538

Prompt: For `CC1=[N+]2C(=C(c3ccc(N(C)C)cc3)c3ccc(C)n3[B-]2(F)F)C=C1` , what is its reported emission maximum?
Response: 513

Prompt: For `COc1ccc(C#Cc2nc3ccccc3nc2-c2cn(C)c3ccccc23)cc1` , what is its reported emission maximum?
Response: 491
